- system: RARΓ (Homo sapiens)
- Construct: expressed in transfected cells; host or cells: CV1 cells
- Sequence (P13631 1-454): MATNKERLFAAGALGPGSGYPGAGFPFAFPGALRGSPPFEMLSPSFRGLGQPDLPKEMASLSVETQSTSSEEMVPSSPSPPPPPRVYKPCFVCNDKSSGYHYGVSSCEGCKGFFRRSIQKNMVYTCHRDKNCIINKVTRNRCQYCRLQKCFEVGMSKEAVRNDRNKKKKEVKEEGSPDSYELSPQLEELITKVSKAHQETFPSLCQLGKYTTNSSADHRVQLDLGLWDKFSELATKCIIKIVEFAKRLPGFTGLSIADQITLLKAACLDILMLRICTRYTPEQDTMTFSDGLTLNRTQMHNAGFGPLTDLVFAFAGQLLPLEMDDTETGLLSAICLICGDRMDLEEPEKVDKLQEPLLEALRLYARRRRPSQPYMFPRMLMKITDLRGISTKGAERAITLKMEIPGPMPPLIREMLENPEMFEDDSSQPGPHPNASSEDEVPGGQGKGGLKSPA
- assayMethodText: Holoreceptor transactivation assay, RARΓ
- Assay type: cell-based
- conditionNotes: CV1 cells, luciferase reporter, 36 hours incubation
- Method: A description of the holoreceptor transactivation assay is also provided below. (8). […] (8, 9). […] A β-galactosidase (50 ng) expression vector was used as an internal control in the transfections to normalize for variations in transfection efficiency. The cells were transfected in triplicate for 6 hours, followed by incubation with retinoids for 36 hours, and the extracts were assayed for luciferase and β-galactosidase activities. […]
pEC50: −log10 of the molar value.
Listed here are compounds together with their documented pEC50.

The cases that follow already have their pEC50 on record.
CC(C=CC1CC1(C)c1ccc2c(c1)C(C)(C)CCO2)=CC(=O)O (stereo not shown)	< 6.00
CC(/C=C/c1ccccc1-c1ccc2c(c1)C(C)(C)CCC2(C)C)=C\C(=O)O	< 6.00
CC(C=CC1CC1(C)c1cc2c(cc1C)C(C)(C)CCC2(C)C)=CC(=O)O (stereo not shown)	< 6.00

Bench note: what pEC50 did CC(C=CC1CC1(C)c1ccc2c(c1)C(C)(C)CCS2)=CC(=O)O (stereo not shown) show?
6.57
